# target_or_test_system: recombinant human Meningioma Expressed Antigen 5 (MGEA5), also referred to as O-GlcNAcase (OGA) (Homo sapiens, UniProt O60502)
# Construct: Full length OGA enzyme was purchased at OnGene (cat #TP322411); purchased OnGene (so in the source)
# protocol: OGA biochemical assay (inhibition of FM-GlcNAc hydrolysis, fluorescence)
# condition_description: read-out: Enzymatic hOGA, pIC50 (converted)
# Text: The assay is based on the inhibition of the hydrolysis of fluorescein mono-β-D-N-Acetyl-Glucosamine (FM-GlcNAc) (Mariappa et al. 2015, Biochem J 470:255) by the recombinant human Meningioma Expressed Antigen 5 (MGEA5), also referred to as O-GlcNAcase (OGA). […] The fluorescence of the latter can be measured at excitation wavelength 485 nm and emission wavelength 538 nm. An increase in enzyme activity results in an increase in fluorescence signal. […]
Mark each entry T if its IC50 sits below 10 nM, and F for all others.

The following compounds have reported results that may help.
>  <compound>
Cc1cc(OC[C@H]2CCCN(C(C)c3ccc4c(n3)OCCO4)C2)nc(C)n1 (single isomer, unassigned) [Product 163]

>  <label_value>
T

$$$$
>  <compound>
Cc1cc(NCC2CCCN(C(C)c3ccc4c(n3)OCCO4)C2)cc(C)n1 (stereo not drawn) [Product 21]

>  <label_value>
T

$$$$
>  <compound>
Cc1cc(C[C@H]2CCCN([C@H](C)c3cc4c(cc3F)OCCO4)C2)cc(C)n1 (single isomer, unassigned) [Product 41]

>  <label_value>
F

$$$$
>  <compound>
Cc1cc(C2CCCN(C(C)c3cnc4c(c3)OCCN4)C2)cc(C)n1 (stereo not drawn) [Product 137]

>  <label_value>
F

$$$$

Request: # TODO verify IC50 < 10 nM strictly for this compound: Cc1cc([C@H]2CCCN(C(C)c3nc4c(cc3F)OCCO4)C2)cc(C)n1 (single isomer, unassigned) [Product 164]
Result: T

Request: Item COc1cc(C[C@H]2CCCN([C@@H](C)c3ccc4c(n3)OCCO4)C2)cc(C)n1 [Product 65] : IC50 beneath 10 nM, strictly?
Result: F

---

# target_or_test_system: OGA (Homo sapiens)
# Construct: endogenous in cells; host or cells: HEK293 cells inducible for P301L mutant human Tau (2N4R)
# Sequence (O60502 1-916): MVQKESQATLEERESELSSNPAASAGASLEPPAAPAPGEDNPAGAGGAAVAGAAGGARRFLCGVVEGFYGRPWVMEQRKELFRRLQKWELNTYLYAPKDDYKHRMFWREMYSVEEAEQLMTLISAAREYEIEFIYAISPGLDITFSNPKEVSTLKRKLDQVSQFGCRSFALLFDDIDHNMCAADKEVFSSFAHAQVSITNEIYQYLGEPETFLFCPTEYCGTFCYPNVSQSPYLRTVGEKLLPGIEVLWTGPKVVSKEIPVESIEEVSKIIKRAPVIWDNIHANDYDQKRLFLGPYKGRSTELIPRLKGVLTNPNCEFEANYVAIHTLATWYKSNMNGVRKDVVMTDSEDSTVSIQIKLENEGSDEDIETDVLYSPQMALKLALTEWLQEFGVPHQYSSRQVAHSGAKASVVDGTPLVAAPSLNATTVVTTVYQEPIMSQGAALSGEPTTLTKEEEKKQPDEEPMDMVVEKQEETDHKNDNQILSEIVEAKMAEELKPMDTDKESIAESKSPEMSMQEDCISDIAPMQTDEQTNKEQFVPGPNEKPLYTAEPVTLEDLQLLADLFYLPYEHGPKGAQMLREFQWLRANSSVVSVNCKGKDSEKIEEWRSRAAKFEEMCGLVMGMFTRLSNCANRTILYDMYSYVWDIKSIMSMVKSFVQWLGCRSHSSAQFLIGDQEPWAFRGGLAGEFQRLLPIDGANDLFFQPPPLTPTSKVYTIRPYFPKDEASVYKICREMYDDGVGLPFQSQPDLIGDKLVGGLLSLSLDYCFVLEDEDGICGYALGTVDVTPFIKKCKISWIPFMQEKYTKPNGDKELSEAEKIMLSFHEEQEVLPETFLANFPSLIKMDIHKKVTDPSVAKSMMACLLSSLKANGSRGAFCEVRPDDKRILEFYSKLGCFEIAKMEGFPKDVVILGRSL
# protocol: OGA cellular assay (ICC detection of O-GlcNAcylated proteins in HEK293 cells inducible for P301L mutant human Tau)
# Format: cell-based
# condition_description: HEK293 cells inducible for P301L mutant human Tau, 6 hours incubation; read-out: Cellular hOGA; pEC50 (converted)
EC50 less than 30 nM is y; EC50 greater than or equal to 30 nM is n.

>  <molecule>
Cc1cc(C[C@H]2CCCN([C@@H](C)c3ccc4c(n3)OCCO4)C2)cc(C)n1 (single isomer, unassigned)

>  <label_value>
y

$$$$
>  <molecule>
Cc1cc(OC[C@H]2CCCN([C@H](C)c3nc4c(cc3F)OCCO4)C2)cc(C)n1

>  <label_value>
n

$$$$
>  <molecule>
Cc1cc(OC[C@@H]2CCCN([C@H](C)c3ccc4c(n3)OCCO4)C2)cc(C)n1 (relative stereo)

>  <label_value>
n

$$$$
>  <molecule>
Cc1cc(C[C@H]2CCCN(C(C)c3ccc4c(c3)OCCN4C)C2)cc(C)n1 (mixture of isomers)

>  <label_value>
n

$$$$
>  <molecule>
COc1cc(N[C@H]2CCCN(C(C)c3ccc4c(n3)OCCO4)C2)cc(C)n1 (stereo partly shown)

>  <label_value>
y

$$$$

Request: Quick check: does Cc1cc([C@H]2CCCN([C@@H](C)c3ccc4c(c3)OCC4)C2)cc(C)n1 (racemic) have EC50 under 30 nM?
Result: y

Request: Record Cc1cc(CC2(F)CCCN([C@@H](C)c3ccc4c(n3)OCCO4)C2)cc(C)n1 (single isomer, unassigned) : is its EC50 strictly below 30 nM?
Result: n
